Organism: Rattus norvegicus
ASSAY_NAME: Open TG-GATES - Regimen: Daily Repeat
Format: toxicity, organism-based, Sprague-Dawley
Parameters: regimen Daily Repeat, gender Male, age 6 weeks
MEASUREMENT_PARAMETERS: in vivo, po, 1000 mg/kg, […], tissue Blood, route gavage, dose level High, time 28 day
METRIC: Hb (g/dL)
Numbers only here, please. The scale is g/dL.

MOLECULE: CCCCNC(=O)NS(=O)(=O)c1ccc(C)cc1 [TOLBUTAMIDE]
Hb, g/dL: 15
--
MOLECULE: CC(=O)[C@@]1(O)CC[C@H]2[C@@H]3C=C(Cl)C4=CC(=O)CC[C@]4(C)[C@H]3CC[C@@]21C
Hb, g/dL: 15.8
--
MOLECULE: O=C(O)c1ccccc1Nc1ccccc1
Hb, g/dL: 12.2

Now, please, on to the next molecule.
Q: Would you kindly share the measured Hb for CC(S)C(=O)NCC(=O)O (centres undefined) ?
Ans: 15

* * *

Species: Rattus norvegicus
ASSAY_NAME: Open TG-GATES - Regimen: Daily Repeat
Type: toxicity, organism-based, Sprague-Dawley
Parameters: regimen Daily Repeat, gender Male, age 6 weeks
MEASUREMENT_PARAMETERS: in vivo, po, 300 mg/kg, 72 h, tissue Plasma, route gavage, dose level Middle, time 3 day
Recorded ALP by entry

COMPOUND: CCCCNC(=O)NS(=O)(=O)c1ccc(C)cc1 [TOLBUTAMIDE]
ALP: 1683.8 IU/L

Q: ALP lookup needed for "CC(=O)[C@@]1(O)CC[C@H]2[C@@H]3C=C(Cl)C4=CC(=O)CC[C@]4(C)[C@H]3CC[C@@]21C" , thanks.
Ans: 1623.2 IU/L

Q: Item "O=C(O)c1ccccc1Nc1ccccc1" has what recorded ALP?
Ans: 1538.8 IU/L

Q: Would you kindly share the measured ALP for CC(S)C(=O)NCC(=O)O (centres undefined) ?
Ans: 1564.4 IU/L

* * *

Species: Rattus norvegicus
ASSAY_NAME: Open TG-GATES - Regimen: Daily Repeat
Assay type: toxicity, organism-based, Sprague-Dawley
Parameters: regimen Daily Repeat, gender Male, age 6 weeks
MEASUREMENT_PARAMETERS: in vivo, po, 0 mg/kg, […], tissue Blood, route gavage, dose level Control, time 14 day
Reported WBC values follow for various compounds
Quick note: unit goes after the number.

Illustrative cases are given below, each with its answer.
COMPOUND: O=C(O)c1ccccc1Nc1ccccc1
WBC: 73.8 x10_2/uL
//
COMPOUND: CCO
WBC: 102.7 x10_2/uL
//
COMPOUND: NS(=O)(=O)c1cc(C(=O)O)c(NCc2ccco2)cc1Cl [FUROSEMIDE]
WBC: 117.4 x10_2/uL

Then there is this compound:
Q: Name the recorded WBC for "CN(C/C=C/C#CC(C)(C)C)Cc1cccc2ccccc12" .
Ans: 106.5 x10_2/uL

* * *

Species on record: Rattus norvegicus
ASSAY_NAME: Open TG-GATES - Regimen: Daily Repeat
Type: toxicity, organism-based, Sprague-Dawley
Set-up: regimen Daily Repeat, gender Male, age 6 weeks
MEASUREMENT_PARAMETERS: in vivo, po, 300 mg/kg, 72 h, tissue Plasma, route gavage, dose level Middle, time 3 day
METRIC: Ca (mg/dL)
Write the number in mg/dL without appending the unit.

# count of solved cases: 3
COMPOUND: CCCCNC(=O)NS(=O)(=O)c1ccc(C)cc1 [TOLBUTAMIDE]
Ca / mg/dL: 11.1

COMPOUND: CC(=O)[C@@]1(O)CC[C@H]2[C@@H]3C=C(Cl)C4=CC(=O)CC[C@]4(C)[C@H]3CC[C@@]21C
Ca / mg/dL: 11

COMPOUND: O=C(O)c1ccccc1Nc1ccccc1
Ca / mg/dL: 11.6

Q: Which value of Ca has been reported for CC(S)C(=O)NCC(=O)O (centres undefined) in the records?
Ans: 10.6

* * *

Each item that follows carries a reported TP.
Species: Rattus norvegicus
ASSAY_NAME: Open TG-GATES - Regimen: Daily Repeat
Format: toxicity, organism-based, Sprague-Dawley
Design: regimen Daily Repeat, gender Male, age 6 weeks
MEASUREMENT_PARAMETERS: in vivo, po, 0 mg/kg, […], tissue Plasma, route gavage, dose level Control, time 7 day
Please give a number only; it is taken to be in g/dL.

Record excerpt, results attached:
MOLECULE: CCCCNC(=O)NS(=O)(=O)c1ccc(C)cc1 [TOLBUTAMIDE]
QUANTITY_UNIT: g/dL
TP: 5.6

MOLECULE: CN(CCOc1ccc(CC2SC(=O)NC2=O)cc1)c1ccccn1.O=C(O)/C=C\C(=O)O (stereo unspecified) [ROSIGLITAZONE MALEATE]
QUANTITY_UNIT: g/dL
TP: 5.7

MOLECULE: COc1ccc([C@@H]2Sc3ccccc3N(CCN(C)C)C(=O)[C@@H]2OC(C)=O)cc1 [DILTIAZEM]
QUANTITY_UNIT: g/dL
TP: 5.8

MOLECULE: CC(=O)[C@@]1(O)CC[C@H]2[C@@H]3C=C(Cl)C4=CC(=O)CC[C@]4(C)[C@H]3CC[C@@]21C [CHLORMADINONE]
QUANTITY_UNIT: g/dL
TP: 5.7

MOLECULE: CN(C/C=C/C#CC(C)(C)C)Cc1cccc2ccccc12 [TERBINAFINE]
QUANTITY_UNIT: g/dL
TP: 5.8

Please look at the following molecule next.
Q: What value of TP has been reported for the following molecule? O=c1ccc2ccccc2o1 [COUMARIN]
Ans: 5.7

* * *

Species on record: Rattus norvegicus
ASSAY_NAME: Open TG-GATES - Regimen: Daily Repeat
Type: toxicity, organism-based, Sprague-Dawley
Set-up: regimen Daily Repeat, gender Male, age 6 weeks
MEASUREMENT_PARAMETERS: in vivo, po, 300 mg/kg, […], tissue Plasma, route gavage, dose level Middle, time 28 day
Attribute: GLC
Hi! Could you send only the number? It should be in mg/dL, unit omitted.

Here are 3 compounds together with their reported answers.
COMPOUND: O=C(O)c1ccccc1Nc1ccccc1
QUANTITY_UNIT: mg/dL
OBSERVED_VALUE: 186.6

COMPOUND: CC(S)C(=O)NCC(=O)O (centres undefined)
QUANTITY_UNIT: mg/dL
OBSERVED_VALUE: 192.4

COMPOUND: CCCCNC(=O)NS(=O)(=O)c1ccc(C)cc1 [TOLBUTAMIDE]
QUANTITY_UNIT: mg/dL
OBSERVED_VALUE: 190

Kindly review the next compound as well.
Q: Entry "CC(=O)[C@@]1(O)CC[C@H]2[C@@H]3C=C(Cl)C4=CC(=O)CC[C@]4(C)[C@H]3CC[C@@]21C" has what GLC?
Ans: 186.8

* * *

// Cl lookup, one value per entry
Species on record: Rattus norvegicus
ASSAY_NAME: Open TG-GATES - Regimen: Daily Repeat
Type: toxicity, organism-based, Sprague-Dawley
Design: regimen Daily Repeat, gender Male, age 6 weeks
MEASUREMENT_PARAMETERS: in vivo, po, 1000 mg/kg, 72 h, tissue Plasma, route gavage, dose level High, time 3 day
Numeric answer only, unit meq/L assumed.

Example compounds with recorded Cl:
COMPOUND: O=C(O)c1ccccc1Nc1ccccc1
Cl [meq/L]: 109
//
COMPOUND: CCCCNC(=O)NS(=O)(=O)c1ccc(C)cc1 [TOLBUTAMIDE]
Cl [meq/L]: 105.2
//
COMPOUND: CC(=O)[C@@]1(O)CC[C@H]2[C@@H]3C=C(Cl)C4=CC(=O)CC[C@]4(C)[C@H]3CC[C@@]21C
Cl [meq/L]: 105.2

Q: Look at this compound and give its reported Cl. CC(S)C(=O)NCC(=O)O (centres undefined)
Ans: 105.8

* * *

Below, each entry is listed with its recorded Mono.
Species on record: Rattus norvegicus
ASSAY_NAME: Open TG-GATES - Regimen: Daily Repeat
Type: toxicity, organism-based, Sprague-Dawley
Set-up: regimen Daily Repeat, gender Male, age 6 weeks
MEASUREMENT_PARAMETERS: in vivo, po, 100 mg/kg, […], tissue Blood, route gavage, dose level Low, time 14 day
Write down the numeric answer in % and omit the unit.

Worked set:
COMPOUND: CCCCNC(=O)NS(=O)(=O)c1ccc(C)cc1 [TOLBUTAMIDE]
QUANTITY_UNIT: %
Mono: 1.8

COMPOUND: O=C(O)c1ccccc1Nc1ccccc1
QUANTITY_UNIT: %
Mono: 2.4

COMPOUND: CC(S)C(=O)NCC(=O)O (centres undefined)
QUANTITY_UNIT: %
Mono: 2.4

Kindly consider the entry below.
Q: What does the record list as Mono for "CC(=O)[C@@]1(O)CC[C@H]2[C@@H]3C=C(Cl)C4=CC(=O)CC[C@]4(C)[C@H]3CC[C@@]21C" ?
Ans: 2

# credit: ChEMBL document CHEMBL3885861
